Reported binding signal fold over 6E7 parental values follow for various binders
# measured-target: T1, human TREM2 (human, UniProt Q9NZC2 19-174, limits assumed)
# T1 sequence: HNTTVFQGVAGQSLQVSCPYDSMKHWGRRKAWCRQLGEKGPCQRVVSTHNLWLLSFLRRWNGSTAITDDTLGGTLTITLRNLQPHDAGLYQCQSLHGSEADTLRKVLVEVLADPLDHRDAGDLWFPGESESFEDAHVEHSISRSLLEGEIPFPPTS
# assay-notes: yeast-displayed Fab FACS, 1st screen 110 nM

| binder | binding signal fold over 6E7 parental / fold |
| --- | --- |
| V44 (Fab, V domains shown) VH: EVQLVQSGAEVKKPGESLKISCKGSGYSFTSYWIAWVRQMPGKGLEWMGIIYPSDSDTRYSPSFQGQVTISADKSISTAYLQWSSLKASDTAMYFCARQRTFYYDSSDYFDYWGQGTLVTVSS VL: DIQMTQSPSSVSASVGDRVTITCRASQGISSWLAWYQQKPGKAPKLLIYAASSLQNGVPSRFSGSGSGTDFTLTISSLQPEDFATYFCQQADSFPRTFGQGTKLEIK | 0.65 |
| V57 (Fab, V domains shown) VH: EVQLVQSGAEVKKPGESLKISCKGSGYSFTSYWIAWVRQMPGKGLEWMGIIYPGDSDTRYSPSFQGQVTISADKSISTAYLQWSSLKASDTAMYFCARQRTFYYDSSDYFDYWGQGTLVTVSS VL: DIQMTQSPSSVSASVGDRVTITCAASQGISSWLAWYQQKPGKAPKLLIYAASSLQNGVPSRFSGSGSGTDFTLTISSLQPEDFATYFCQQADSFPRTFGQGTKLEIK | 0.84 |
| V20 (Fab, V domains shown) VH: EVQLVQSGAEVKKPGESLKISCKGSGYSFTSYWIAWVRQMPGKGLEWMGRIYPGDSDTRYSPSFQGQVTISADKSISTAYLQWSSLKASDTAMYFCARQRTFYYDSSDYFDYWGQGTLVTVSS VL: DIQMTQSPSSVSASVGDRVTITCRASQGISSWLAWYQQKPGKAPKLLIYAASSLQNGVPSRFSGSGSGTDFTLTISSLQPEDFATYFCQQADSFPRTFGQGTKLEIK | 0.18 |
| V46 (Fab, V domains shown) VH: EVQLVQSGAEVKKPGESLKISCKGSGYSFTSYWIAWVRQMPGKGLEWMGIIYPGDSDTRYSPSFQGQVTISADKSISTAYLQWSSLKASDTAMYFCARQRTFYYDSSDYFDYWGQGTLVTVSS VL: DIQMTQSPSSVSASVGDRVTITCRASQGISSWLAWYQQKPGKAPKLLIYAASTLQNGVPSRFSGSGSGTDFTLTISSLQPEDFATYFCQQADSFPRTFGQGTKLEIK | 0.83 |
